B1: TPR t1 (parent)
chain: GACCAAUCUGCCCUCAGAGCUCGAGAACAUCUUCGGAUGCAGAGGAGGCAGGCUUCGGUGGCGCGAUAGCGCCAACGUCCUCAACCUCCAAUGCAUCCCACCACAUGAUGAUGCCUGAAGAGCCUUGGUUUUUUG

variants of: B1; test: polymerase ribozyme fitness, log enrichment relative to wild type (log ratio); higher = more active; in vitro selection for triplet polymerase activity
MEASUREMENT LABEL: polymerase ribozyme fitness (log ratio)
Please reply with the value in numeric form only.

Some entries whose results are on file:
SEQUENCE: GACCAAUCUGCCCUCAGAGCUCGAGAACAUCUUCGGAUGCAGAGGAGGCAGGCUUCGGUGACGCGAUAGCGCCAACGUCCUCAACCUCCAAUGCAUCCCACCACAUGAUGAUGCCUGAAUAGCCUUGGUUUUUUG [G61A G120U]
NUMERIC READOUT: 0.215

SEQUENCE: GACCAAUCGGCCCUCAGAGCUCGAGAACAUCUUCGGAUGCAGAGGAGGCAGGCUUCGGUGGCGCGAUAGCGCCAACGUCCUCAACCACCAAUGCAUCCCCCCACAUGAUGAUGCCUGAAGAGCCUUGGUUUUUUG [U9G U87A A100C]
NUMERIC READOUT: -0.443

SEQUENCE: GACCAAUCUGCCCUCAGAGCUCGAGAAGAUCUUCGGAUGCAGAGGUGGCAGGCUUCGGUGGCGCGAUAGCGCCAACGUCCUCAACCUCCAAUGCAUCCCACCACAUGAUGAUGCCUGAAGAGCCUUGGUUUUUUG [C28G A46U]
NUMERIC READOUT: -3.8

SEQUENCE: GACCAAUCUGCCCUCAGAGCUCGUGAACAUCUUCGGAUGCAGAGGAGGCAGGCUUCGGUGCCGCGAUAGCGCCAACGUCCUCAACCUCCAAUGCAUCCCACCACAUGAUGAUGCCUGAAGAGCCUUGGUUUUUUG [A24U G61C]
NUMERIC READOUT: -7.27

SEQUENCE: GACCAAUCUGCCCUCUGAGCUCGAGAACAUCUUCGGAUGCAGAGGAGGCAGGCUUCGGUGGCGCGAUAGCGCCAACGUCCUCAACCUCCAAUGCAUCCCACCACAUUAUGAUGCCUGAAGAGCGUUGGUUUUUUG [A16U G107U C124G]
NUMERIC READOUT: -4.06

Req: Give the measured polymerase ribozyme fitness (log ratio) of GACCAAUCUGCCCUCAGAGCUCGAGAACAUCUUCGGAUGCAGUGGAGGCAGGCUUCGGUGGCGCGAUAGCACCAACGUCCUCAACCUCCAAUGCAUCCCACCACAUGAUGAUGCUUGAAGAGCCUUGGUUUUUUG [A43U G71A C115U] .
Resp: -3.62

Req: Give the measured polymerase ribozyme fitness (log ratio) of GACCAUUCUGCCCUCAGAGCUCGAGAACAUCUUCGGAUGCAGAGGAGGCAGGCUUCCGUGGCACGAUAGCGCCAACGUCCUCAACCUCCGAUGCAUCCCACCACAUGAUGAUGCCUGAAGAGCCUUGGUUUUUUG [A6U G57C G63A A90G] .
Resp: -0.878

Req: Give the measured polymerase ribozyme fitness (log ratio) of GACCACUCUGCCCUCAGAGCUCGAGAACAUCUUCGGAUGCAGAGGAGGCAGGCUUCGGUGGCGCGAUAGCGCCAAAGUUCUCAACCUCCAAUGCAUCCCACCACAUGAUGAUGCCUGAAGAGCCUUGGUUUUUUG [A6C C76A C79U] .
Resp: -0.8

Req: Give the measured polymerase ribozyme fitness (log ratio) of GACCAAUCUGCCCUCAGAGCUCGAGAAUAUCUUCGGAUGCAGAGAAGGGAGGCUUCGGUGGCGCGAUAGCGUCAACGUCCUCAACCUCCAAUGCAUCCCACCACAUGAUGAUGCCUGAAGAACCUUGGUUUUUUG [C28U G45A C49G C72U G122A] .
Resp: -4.63

Req: Give the measured polymerase ribozyme fitness (log ratio) of GCCCAAUCUGACCUCAGAGCUCGAGAACAUCUUCGGAUGCAGAGGAGUCAGGCUUCGGUGGCGCGAUAGCGUCAACGUCUUCAACCUCCAAUGCAUCCCACCACAUGAUGAUGCCUGAAUAGCCUUGGUUUUUUG [A2C C11A G48U C72U C80U G120U] .
Resp: -3.83

Req: Give the measured polymerase ribozyme fitness (log ratio) of GACCAAUCUGCCUUCAGAGCUCGAGAACAUCUUCGGAUGCAGAGGAGGCAGGCUUCGGUAGCGCGAUAGCGCCAACGUCCUCAACCUCCAAUGCAUCCCUUCAUAUGAUGAUGCCUGAAGCGCCUUGGUUUUUUG [C13U G60A A100U C101U C104U A121C] .
Resp: 1.93

Req: Give the measured polymerase ribozyme fitness (log ratio) of GACCAAUCUGCGCUCAGAGCUCGAGAACAUCUUCGGAUGGAGAGGAGGCAGGCUUCGGUGGCACGAUAGCGCCAACGUCCUCAACCUCCAAUGCAUCCCACCACAUGAUGAUGCCUGAAGAGCCUUGGUUUUUUG [C12G C40G G63A] .
Resp: -1.01

Req: Give the measured polymerase ribozyme fitness (log ratio) of GACCAAUCUGCCCUCAGAGCUCGAGAACAUCUUCGGAUAAAGAGGAGGCAGGCUUCGGUGGCGCGAUAGCGCCAACGUCCUCAACCUCCAAUGCAUCCCACCACAUGAUGAUGCCUGAAGAGCCUUGGUUUUUUG [G39A C40A] .
Resp: -3.25

Req: Give the measured polymerase ribozyme fitness (log ratio) of GACCAAUCUGCUCUCAGAGCUCGAGAACAUCUUCGGAUGCAGAGGAGGCAGGCUUCGGUGUCGCGAUAGCGCCAACGUCCUCAACCUCCAAUGCAUCCCACCACAUGAUGAUGCCUGAAGAGCCUUGGUUUUUUG [C12U G61U] .
Resp: 0.129

Req: Give the measured polymerase ribozyme fitness (log ratio) of GACCAAUCUGCCCUCAGAGCUCGAGAACAUCUUCGGAUGCAGAGGAGGCAGGCUUUGGUGGCGCGAUAGCGCCAACGUCCUCAACGUCCAAUGCAUCCCACCACAUGAUGUUGCCUGAAGAGCCUUGGGUUUUUG [C56U C86G A111U U129G] .
Resp: -5.47

Req: Give the measured polymerase ribozyme fitness (log ratio) of GACCAAUCUGCCCUCAGAGCUCGAGAACAUCUUCGGAUGCAGAGGAGUCAGGCUUAGGUGGCGCGAUAGCGCCAACGUCCUCAACCUCCAAAGCAUCCCACCACAUGAUGAUGCCUGAAGAGCCUUGGUUUUUUG [G48U C56A U92A] .
Resp: -4.35

Req: Give the measured polymerase ribozyme fitness (log ratio) of GACCAAUCUGCCCUCAGAGCUCGAGAACAUCUUCGGAUGCAGAGGAGGCAGGCUUCGGUGGCGCGAUAGCGCCAACGUCCUCAACCUCCAAUGCAUCCCACCACAUGAUGAUGCAUGAAGAGCCUUCGUUUUUUG [C115A G127C] .
Resp: -1.67

Req: Give the measured polymerase ribozyme fitness (log ratio) of GACCAAUCUGCCCUCAGAGCUCGAGAACAUCUUCGGAUGCAGAGGAGGCAGGCUUCGGUGGCCCGAUAGCGCCAACGUCCUCAACCUCCAAUGCAUCCCACCACAUGAUGAUGCCUGAAGAGCCGUGGUUUUUUG [G63C U125G] .
Resp: -2.2

Req: Give the measured polymerase ribozyme fitness (log ratio) of GACCAAUCUGCCCUCAGAGCUCGAGAACAUCUUCGGAUGCAGAGGAGGCAGGCUUCGGUGGCGCGAUAGCACCAACGUUCUCAACCUCCAAUGCAUCUCACCACAUGAUGAUGCCUGAAGAGCCUUGGUUUUUUG [G71A C79U C98U] .
Resp: -1.99
